target-system: T1, recombinant human TIGIT (human, UniProt Q495A1 22-141, limits assumed)
T1 construct: recombinant human TIGIT used in Carterra SPR; also called hTIGIT
T1 sequence (looked up): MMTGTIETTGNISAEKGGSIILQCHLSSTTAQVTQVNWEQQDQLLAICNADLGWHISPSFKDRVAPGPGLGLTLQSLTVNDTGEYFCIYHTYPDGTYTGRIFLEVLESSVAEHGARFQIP
method-notes: SPR Carterra, average
List of Kd values.
experimental-endpoint: Kd (nM)

binder: TIGIT-SC115 (Fc fusion, VHH-Fc fusion in assay) VHH: EVQLVESGGGLVQPGGSLRLSCAASGNTFSGGFMGWFRQAPGKEREWVASVLRGGYTWYADSVKGRFTISADNSKNTAYLQMNSLKPEDTAVYYCAGTGLWGQGTLVTVSS
reading-unit: nM
observed-measurement: 8.42

binder: TIGIT-SC111 (Fc fusion, VHH-Fc fusion in assay) VHH: EVQLVESGGGLVQPGGSLRLSCAASGDTFSGGFMGWFRQAPGKEREWVASVLRGGYTWYADSVKGRFTISADNSKNTAYLQMNSLKPEDTAVYYCTRGGMDVWGQGTLVTVSS
reading-unit: nM
observed-measurement: 4.37

binder: TIGIT-SC136 (Fc fusion, VHH-Fc fusion in assay) VHH: EVQLVESGGGLVQPGGSLRLSCAASGFTLENNMMGWFRQAPGKEREFVAAISRSGTLKAYADSVKGRFTISADNSKNTAYLQMNSLKPEDTAVYYCARGGELTTFYFGYWGQGTLVTVSS
reading-unit: nM
observed-measurement: 20.4

binder: TIGIT-SC146 (Fc fusion, VHH-Fc fusion in assay) VHH: EVQLVESGGGLVQPGGGLRLSCAASGFTLENNMMGWFRQAPGKEREFVAAISASGTLRAYADSVKGRFTISADNSKNTAYLQMNSLKPEDTAVYYCAKGGQAGPMAFYFDYWGQGTLVTVSS
reading-unit: nM
observed-measurement: 1060

binder: TIGIT-SC78 (Fc fusion, VHH-Fc fusion in assay) VHH: EVQLVESGGGLVQPGGSLRLSCAASGLTLNDYAMGWFRQAPGKERELVAWIARYDGSTLYADSVKGRFTISADNSKNTAYLQMNSLKPEDTAVYYCARVDWALNAAPFDYWGQGTLVTVSS
reading-unit: nM
observed-measurement: 2.02

binder: TIGIT-SC38 (Fc fusion, VHH-Fc fusion in assay) VHH: EVQLVESGGGLVQPGGSLRLSCAASGFTFSEYPMGWFRQAPGKEREFVAVVNWNGDSTYYADSVKGRFTISADNSKNTAYLQMNSLKPEDTAVYYCARGSDWYRYWGQGTLVTVSS
reading-unit: nM
observed-measurement: 0.505

binder: TIGIT-SC129 (Fc fusion, VHH-Fc fusion in assay) VHH: EVQLVESGGGLVQPGGSLRLSCAASGPTLGSYVMGWFRQAPGKEREFVAAISGSGDDTYYADSVKGRFTISADNSKNTAYLQMNSLKPEDTAVYYCARWREFPGYYFAIDVWGQGTLVTVSS
reading-unit: nM
observed-measurement: 43.9

binder: TIGIT-SC32 (Fc fusion, VHH-Fc fusion in assay) VHH: EVQLVESGGGLVQPGGSLRLSCAASGFAFGDSWMGWFRQAPGKERELVAAIDWSGGSALYADSVKGRFTISADNSKNTALQMNSLKPEDTAVYYCAKVHSDFRAGWDVWGQGTLVTVSS
reading-unit: nM
observed-measurement: 16.6
